# credit: paper PMC4640224

Biological target: p25/CDK5 (Homo sapiens, UniProt Q00535+Q15078)
Construct: purchased Millipore UK Ltd, Herts, UK
Sequence (Q00535 whole entry): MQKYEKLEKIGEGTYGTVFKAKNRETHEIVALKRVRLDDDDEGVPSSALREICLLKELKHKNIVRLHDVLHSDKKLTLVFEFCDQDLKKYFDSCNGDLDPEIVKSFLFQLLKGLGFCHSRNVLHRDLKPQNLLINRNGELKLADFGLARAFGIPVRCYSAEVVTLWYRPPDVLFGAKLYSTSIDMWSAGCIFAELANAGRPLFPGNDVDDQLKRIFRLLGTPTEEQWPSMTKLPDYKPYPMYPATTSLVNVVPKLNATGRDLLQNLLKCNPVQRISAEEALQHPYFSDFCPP
Sequence (Q15078 99-307 partner limits assumed): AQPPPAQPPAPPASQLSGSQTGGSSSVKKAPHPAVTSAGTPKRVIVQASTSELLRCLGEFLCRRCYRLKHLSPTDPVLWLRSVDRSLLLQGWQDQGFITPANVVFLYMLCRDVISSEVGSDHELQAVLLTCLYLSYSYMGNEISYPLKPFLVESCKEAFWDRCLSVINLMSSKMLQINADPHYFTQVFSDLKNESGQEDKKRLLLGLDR
Assay: Peptide kinase assay with p25/CDK5
Type: biochemical
Details: 100 μM peptide, 20 min, Fig. 1b
metricName: Phosphorylation of substrate class peptides, in words

>>> df
              sequencechain                        experimentalsystem      reportedresult
0  KKENNVLSPLPSQA [Class 4]  p25/CDK5 (Homo sapiens, UniProt Q00535+Q15078)  not phosphorylated
1  KKPKSRRSPPSIPT [Class 3]  p25/CDK5 (Homo sapiens, UniProt Q00535+Q15078)  not phosphorylated

====

Molecular target: p35/CDK5 (Homo sapiens, UniProt Q00535+Q15078)
Construct: purchased Millipore UK Ltd, Herts, UK
Sequence (Q00535 whole entry): as the sequence (Q00535 whole entry) above
Sequence (Q15078 whole entry partner): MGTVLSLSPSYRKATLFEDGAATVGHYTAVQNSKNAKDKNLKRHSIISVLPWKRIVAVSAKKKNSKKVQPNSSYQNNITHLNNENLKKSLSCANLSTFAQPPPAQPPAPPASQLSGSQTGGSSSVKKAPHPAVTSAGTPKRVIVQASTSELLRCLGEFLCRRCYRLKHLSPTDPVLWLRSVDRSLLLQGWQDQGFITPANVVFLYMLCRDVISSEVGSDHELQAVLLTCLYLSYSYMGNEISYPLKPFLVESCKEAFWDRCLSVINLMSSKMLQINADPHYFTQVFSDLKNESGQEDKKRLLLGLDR
Assay: Peptide kinase assay with p35/CDK5
Format: biochemical
Conditions: 100 μM peptide, 20 min, Fig. 1b
metricName: Phosphorylation of substrate class peptides, in words

In [3]: df
Out[3]:
              sequencechain      reportedresult
0  KKPKSRRSPPSIPT [Class 3]  not phosphorylated
1  KKENNVLSPLPSQA [Class 4]  not phosphorylated
